Tested on: NIH3T3
EXPERIMENT NOTES: Antiproliferative activity against mouse 3T3 cells assessed as reduction in cell viability at 100 uM measured for 48 hrs by MTT assay relative to control
Type: toxicity, cell-based
CONDITION SUMMARY: nih3t3, 48 h
Consider the cut-off 40%. If the recorded Activity is strictly smaller, the label is 1 (yes); if not, the label is 0 (no).

COMPOUND	ANSWER LABEL
O=C(CCCCCCC(=O)Nc1ccccc1)NO [VORINOSTAT]	1 (yes)
O=C(/C=C/CSc1nc2c([nH]c3ccccc32)c(=O)[nH]1)NO	0 (no)
O=C(CCCCCSc1nc2[nH]ncc2c(=O)[nH]1)NO	1 (yes)
COc1cc([C@@H]2c3cc4c(cc3[C@@H](O[C@@H]3O[C@@H]5CO[C@@H](C)O[C@H]5[C@H](O)[C@H]3O)[C@H]3COC(=O)[C@H]23)OCO4)cc(OC)c1O [ETOPOSIDE]	1 (yes)
CCn1c(SCC(=O)NO)nc2c([nH]c3ccccc32)c1=O	0 (no)
O=C(CSc1nc2[nH]ncc2c(=O)[nH]1)NO	0 (no)
O=C(/C=C/c1ccc(CSc2nc3c([nH]c4ccccc43)c(=O)[nH]2)cc1)NO	1 (yes)
C/C(=N\O)c1ccc(NC(=O)CSc2nc3c([nH]c4ccccc43)c(=O)[nH]2)cc1	1 (yes)
O=C(CCSc1nc2[nH]ncc2c(=O)[nH]1)NO	0 (no)
